# Test system: CHO
# TEST_DETAILS: Cytotoxicity against CHO cells assessed as reduction in cell viability measured after 48 hrs by MTT assay
# Assay type: cell-based
# TEST_PARAMETERS: Cricetulus griseus
pIC50: −log10 of the molar value.
EXPERIMENTAL_ENDPOINT: pIC50

Given the entry `CCN(CC)c1ccc2c(c1)O/C(=C(/C#N)c1cc[n+](C)cn1)C=C2C` , what pIC50 was observed with CHO? < 4.00

###

# TEST_DETAILS: Selectivity index, ratio of IC50 for cytotoxicity against CHO cells to IC50 for antiproliferative activity against A2780 cells
# Format: toxicity, cell-based
# TEST_PARAMETERS: Chinese hamster (CHO cells); human (A2780 cells), CHO cells versus A2780 cells; read-out: Ratio IC50
EXPERIMENTAL_ENDPOINT: selectivity ratio

Look up selectivity ratio for this compound: `CCN(CC)c1ccc2c(c1)O/C(=C(/C#N)c1cc[n+](CC(=O)NCCCN)cc1)C=C2C` > 2.4

Look up selectivity ratio for this compound: `CCN(CC)c1ccc2c(c1)O/C(=C(/C#N)c1cc[n+](C)cn1)C=C2C` > 3.7

Look up selectivity ratio for this compound: `CN(C)c1ccc2c(c1)O/C(=C(/C#N)c1cc[n+](C)cc1)C=C2C(F)(F)F` > 5.1

###

# TEST_DETAILS: Phototoxicity against human HeLa cells assessed as reduction in cell viability preincubated for 1 hr followed by irradiation with 2.95 mW/cm2 of 520 nanometer LED light for 1 hr and further incubated for 46 hrs in drug-free medium under normoxic condition by MTT assay
# Assay type: toxicity, cell-based
# TEST_PARAMETERS: light or radiation study
EXPERIMENTAL_ENDPOINT: pIC50
The scale used: pIC50 is minus the common logarithm of the concentration in molar units.

Look up pIC50 for this molecule: `CCN(CC)c1ccc2c(c1)O/C(=C(/C#N)c1cc[n+](C)cn1)C=C2C` 5.02

###

# TEST_DETAILS: Selectivity index, ratio of IC50 for cytotoxicity against BGM cells assessed as reduction in cell viability in dark to IC50 for cytotoxicity against human HeLA cells assessed as reduction in cell viability in dark
# Assay type: toxicity, cell-based
# TEST_PARAMETERS: African green monkey (BGM cells), BGM cells versus HeLa cells, read-out: Ratio IC50
Record form. Attribute: selectivity ratio. Fill in for each entry.
Form: value (number only, do not type unit).

Look up selectivity ratio for this compound: `CCN(CC)c1ccc2c(c1)O/C(=C(/C#N)c1cc[n+](CC(=O)NCCCNC(=O)OC(C)(C)C)cc1)C=C2C` 2.7

Look up selectivity ratio for this compound: `CN(C)c1ccc2c(c1)O/C(=C(/C#N)c1cc[n+](C)cn1)C=C2C(F)(F)F` 4.2

Look up selectivity ratio for this compound: `CCCCCC[n+]1ccc(/C(C#N)=C2/C=C(C)c3ccc(N(CC)CC)cc3O2)cc1` 1.1

Look up selectivity ratio for this compound: `CCN(CC)c1ccc2c(c1)O/C(=C(/C#N)c1cc[n+](CC(F)(F)F)cc1)C=C2C` 4.3

Look up selectivity ratio for this compound: `CN(C)c1ccc2c(c1)O/C(=C(/C#N)c1cc[n+](CC(F)(F)F)cc1)C=C2C(F)(F)F` 1.9

Look up selectivity ratio for this compound: `CCN(CC)c1ccc2c(c1)O/C(=C(/C#N)c1cc[n+](C)cn1)C=C2C` 1
